// reported inhibition of aggregation for each item listed
- methodSummary: reduction of polyQ htt aggregates in cells – imaging, exon1htt(103Q)mCFP cells, high-content imaging, primary screen (AID 483);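 also: compound exposure lasted 3 days before fixation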
- measurementConditions: exon1htt(103Q)mCFP cell line, aggregate imaging, at 2 µM; stronger effect = higher value
Your answer should be a plain number; it is taken to be in %.

Worked examples, 5 molecules total:
COC(=O)CSc1nnc(-c2cccs2)n1-c1ccc(Cl)cc1    10.2
CSCCC(N=CC1=C(O)CC(C)(C)CC1=O)C(=O)O (stereo unspecified)    -10.8
Cc1ccc(-n2nnnc2SCC(=O)c2cc(C)n(CC3CCCO3)c2C)cc1 (stereo unspecified)    -11.9
Cc1nnc2c3ccccc3c(-c3ccccc3)nn12    -5.8
O=C1CC(C(=O)Nc2ccc(Br)cc2)C2(CCCC2)O1 (stereo unspecified)    -3.7

In plain terms, Cc1ccc(CNC(=O)C2CCCN(S(=O)(=O)c3cnc[nH]3)C2)cc1 (stereo unspecified) has a documented inhibition of aggregation of -30.5

In plain terms, "COc1ccc(CCNC(=O)c2cnc3scc(C)n3c2=O)cc1OC" has a documented inhibition of aggregation of -6

In plain terms, "CCOc1cc(S(=O)(=O)N2CCC(Cc3ccccc3)CC2)c(OCC)cc1-n1cnnn1" has a documented inhibition of aggregation of -5.6

In plain terms, "Cn1c(=O)[nH]c(=O)c2[nH]c(NCCCN3CCOCC3)nc21" has a documented inhibition of aggregation of 8

In plain terms, "COc1ccc(N2CCN(c3ccc(N)cc3C#N)CC2)cc1" has a documented inhibition of aggregation of 28.1

====

- methodSummary: TLR3 IRF3 reporter activation blockers – cell-based, poly I:C stimulus, luciferase, 10K MLSCN set, primary screen (AID 602277)
- measurementConditions: HEK293-TLR3 RL24 IRF3 luciferase reporter, at 10 µM, stronger effect = higher value
// reported inhibition for each item listed
Your answer should be a plain number; it is taken to be in %.

O=C(Cc1ccccc1)N1CCCC(c2nc(-c3cccs3)no2)C1 (centres undefined)    2.57

In plain terms, "Cc1cc(C)n2nc[n+](C)c2n1" has a documented inhibition of -6.5

In plain terms, "Cn1nnnc1SCC(=O)N1CCN(c2cccc(Cl)c2)CC1" has a documented inhibition of 11.3

In plain terms, "O=C(CNC(=O)c1ccccc1C(=O)O)c1ccccc1" has a documented inhibition of -49

====

- methodSummary: reduction of polyQ htt aggregates in cells – imaging, exon1htt(103Q)mCFP cells, high-content imaging, primary screen (AID 483);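 also: compound exposure lasted 3 days before fixation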;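 as to nuclei count: percent of the per-plate median nuclei count of sample wells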
- measurementConditions: exon1htt(103Q)mCFP cell line, aggregate imaging, at 2 µM; measured here: cell count, toxicity
// reported nuclei count for each item listed
Your answer should be a plain number; it is taken to be in %.

COc1ccc(OC)c(NC(=O)CS(=O)(=O)Cc2nc(-c3ccccc3C)oc2C)c1    97.7

In plain terms, "Cn1c(SCC(N)=O)nnc1C1CCN(C(=O)NCc2ccccc2)CC1" has a documented nuclei count of 99.8

In plain terms, "Cc1occc1-c1nc(-c2ccncc2)no1" has a documented nuclei count of 95.3

In plain terms, CC(=O)Nc1ccc(S(=O)(=O)NCC2CCC(C(=O)NCCCN3CCCC3=O)CC2)cc1 (centres undefined) has a documented nuclei count of 112

In plain terms, "CCCCn1nc(C(=O)N2CCc3ccccc32)c2ccccc2c1=O" has a documented nuclei count of 112
